Ref: paper PMC4450297

tested on: NCI-H2405; experiment: Cell panel screen (CellTiter-Glo); assay type: cell-based, human; conditions: NCI-H2405 (Lung), 20 micromolar, 72 hrs
Each entry below lists one item and its recorded Percent Inhibition value.
Lab book: enter the figure in %, no units written.

Briefly, Percent Inhibition measured for "CC(C)=CCc1c(O)cc2oc3cc(O)c(O)c(CC=C(C)C)c3c(=O)c2c1O" : 96

Summary for this compound, O=c1c2cc(O)ccc2oc2cccc(O)c12 [gl-20] : Percent Inhibition is -5

Item: CC(C)=CCCC1(C)C=Cc2c(O)c3c(c(CC=C(C)C)c2O1)OC12C(=CC4CC1C(C)(C)OC2(CC=C(C)C(=O)O)C4=O)C3=O (mixture of isomers) [GB14] | Percent Inhibition: 97

Entry under test: "COc1c(O)c(O)c2c(=O)c3c(CC=C(C)C)c(CC=C(C)C)c(O)c(O)c3oc2c1CC=C(C)C" . Its Percent Inhibition was -7

* * *

test system: CCF-STTG1; experiment: Cell panel screen (CellTiter-Glo); format: cell-based, human; conditions: CCF-STTG1 (Brain), 20 micromolar, 72 hrs
Below, each entry is listed with its recorded Percent Inhibition.
Give the value, in units of %, as a plain number.

Entry under test: CC(C)=CCc1c(O)cc2oc3cc(O)c(O)c(CC=C(C)C)c3c(=O)c2c1O [Ge9] . Its Percent Inhibition was 99

// field: Percent Inhibition; key: O=C(c1ccc(O)c(O)c1)c1c(O)cc(O)cc1O [gl-25] ; value = 9

Form: molecule = O=c1c2cc(O)c(O)cc2oc2cc(O)cc(O)c12 [Ge-17] ; Percent Inhibition = 15

# Percent Inhibition of O=C1c2c(O)cc(O)cc2OC(c2ccc(O)c(O)c2)C1O (stereo not drawn) [gl-34] = 4

# Percent Inhibition of CC1(C)C=Cc2cc3c(=O)c4c(O)cc(O)cc4oc3c(O)c2O1 [Go-11] = 44

* * *

Listed below: Percent Inhibition values for each entry.
system: CW-2; experiment: Cell panel screen (CellTiter-Glo); assay type: cell-based, human; settings: CW-2 (Colon), 20 micromolar, 72 hrs
Reply numerically in %, unit not repeated.

[[record]]
molecule = "CC(C)=CCc1c2c(c(O)c3c(=O)c4c(CC=C(C)C)c(O)c(O)cc4oc13)C=CC(C)(C)O2"
tested_on = "CW-2"
value_units = "%"
assay_value = 97

[[record]]
molecule = "O=c1c2cc(O)ccc2oc2cccc(O)c12 [gl-20]"
tested_on = "CW-2"
value_units = "%"
assay_value = 47


# "CC(C)=CCc1c(O)cc2oc3ccc(O)cc3c(=O)c2c1O" with CW-2: Percent Inhibition is 62

CW-2 assay, molecule "CC(C)=CCc1c(O)cc(O)c2c1O[C@]13C(=C[C@@H]4C[C@H]1C(C)(C)O[C@@]3(CC=C(C)C)C4=O)C2=O" , recorded Percent Inhibition = 100

* * *

test system: T98G; test: Cell panel screen (CellTiter-Glo); format: cell-based, human; details: Homo sapiens; T98G (Brain), 20 micromolar, 72 hrs; read-out: Percent Inhibition
measurement_type: inhibition at 20 µM
Number first, unit second.

[[record]]
compound = "CC(C)=CCC/C(C)=C/Cc1c(O)c(CC=C(C)C)c2c(c1O)C(=O)C1=C[C@@H]3C[C@H]4C(C)(C)O[C@@](C/C=C(\\C)C(=O)O)(C3=O)[C@@]14O2 [GB63]"
assay_value = "99%"


Looking up CC(C)=CCC[C@@]1(C)C=Cc2c(O)c3c(c(C/C=C(\C)CO)c2O1)O[C@]12C(=C[C@@H]4C[C@H]1C(C)(C)O[C@@]2(C/C=C(/C)C(=O)O)C4=O)C3=O [GB40, 35-hydroxyepigambogic acid] , I found its inhibition at 20 µM recorded as 99%

The recorded inhibition at 20 µM for entry CC(C)=CCC[C@@]1(C)C=Cc2c(O)c3c(c(CCC(C)(C)O)c2O1)O[C@]12C(=C[C@@H]4C[C@H]1C(C)(C)O[C@@]2(C/C=C(/C)C(=O)O)C4=O)C3=O [GB39, 33-hydroxyepigambogic acid] equals 100%

Record CC(C)=CCc1c(O)cc2oc3c(CC=C(C)C)c(O)c(O)c(CC=C(C)C)c3c(=O)c2c1O [bn-1, Garcinone E] . Reported inhibition at 20 µM: 100%

CC(C)=CCC/C(C)=C/Cc1c(O)c(CC=C(C)C)c2c(c1O)C(=O)C1=C[C@@H]3C[C@H]4C(C)(C)O[C@@](C/C=C(\C)C=O)(C3=O)[C@@]14O2 [GB49] has a reported inhibition at 20 µM of 99%
